Recorded Conversion rate for the following compounds
System: CYP204A1
Study conditions: strain BP172, same reaction as Example 6 (28° C., 5 hours)

Compound	Unit string	Conversion rate
CC(C)CCC[C@](C)(O)[C@H]1CC[C@H]2[C@@H]3CCC4=CC(=O)CC[C@]4(C)[C@H]3CC[C@@]21C [(20S)-20-hydroxycholest-4-en-3-one]	%	63.9
CC(C)CC[C@@H](O)[C@@H](C)[C@H]1CC[C@H]2[C@@H]3CCC4=CC(=O)CC[C@]4(C)[C@H]3CC[C@]12C [(22R)-22-hydroxycholest-4-en-3-one]	%	80.9
CC(C)=CCC[C@@H](C)[C@H]1CC[C@H]2[C@@H]3CC=C4C[C@@H](O)CC[C@]4(C)[C@H]3CC[C@]12C [desmosterol]	%	66.1
CC(C)CC[C@H](O)[C@](C)(O)[C@H]1CC[C@H]2[C@@H]3CCC4=CC(=O)CC[C@]4(C)[C@H]3CC[C@]12C	%	41.7
CC(C)CC[C@H](O)[C@@H](C)[C@H]1CC[C@H]2[C@@H]3CC=C4C[C@@H](O)CC[C@]4(C)[C@H]3CC[C@]12C [(22S)-22-hydroxy-cholesterol]	%	12.9
CC[C@H](/C=C/[C@@H](C)[C@H]1CC[C@H]2[C@@H]3CC=C4C[C@@H](O)CC[C@]4(C)[C@H]3CC[C@]12C)C(C)C [stigmasterol]	%	6.5
CC(C)[C@H](C)CC[C@@H](C)[C@H]1CC[C@H]2[C@@H]3CC=C4C[C@@H](O)CC[C@]4(C)[C@H]3CC[C@]12C [campesterol]	%	31.3
CC(C)CC[C@@H](O)[C@@H](C)[C@H]1CC[C@H]2[C@@H]3CC=C4C[C@@H](O)CC[C@]4(C)[C@H]3CC[C@]12C [(22R)-22-hydroxy-cholesterol]	%	69.5
CC(C)CC[C@@H](O)[C@](C)(O)[C@H]1CC[C@H]2[C@@H]3CC=C4C[C@@H](O)CC[C@]4(C)[C@H]3CC[C@]12C [(20R,22R)-20,22-dihydroxy-cholesterol]	%	51.6
CC(C)CCC[C@](C)(O)[C@H]1CC[C@H]2[C@@H]3CC=C4C[C@@H](O)CC[C@]4(C)[C@H]3CC[C@@]21C [(20S)-20-hydroxy-cholesterol]	%	68.2
CC(C)CCC[C@@H](C)[C@H]1CC[C@H]2[C@@H]3CCC4=CC(=O)CC[C@]4(C)[C@H]3CC[C@]12C [4-cholesten-3-one]	%	84.0
CC(C)=CCC[C@@H](C)[C@H]1CC[C@@]2(C)C3=C(CC[C@]12C)[C@@]1(C)CC[C@H](O)C(C)(C)[C@@H]1CC3 [Lano, lanosterol]	%	0

---

Target under test: CYP11A (Homo sapiens, UniProt P05108)
Construct: A 1.45-kb CYP11A1 gene fragment amplified as a result of the above-described reaction; expressed in transfected cells; host or cells: Escherichia coli BL21(DE3), plasmid pCYP11A-ARX (strain BL21CYP11)
Test protocol: Conversion reaction of substrates by CYP11A-expressing Escherichia coli
Type: cell-based
Study conditions: same reaction as Example 6 (28° C., 5 hours)
The following molecules are listed with their measured Conversion rate values.
Measured parameter: Conversion rate (%)

Molecule	Target under test	Measured parameter	Reported
CC(C)CC[C@@H](O)[C@](C)(O)[C@H]1CC[C@H]2[C@@H]3CC=C4C[C@@H](O)CC[C@]4(C)[C@H]3CC[C@]12C [(20R,22R)-20,22-dihydroxy-cholesterol]	CYP11A (Homo sapiens, UniProt P05108)	Conversion rate	32.3
CC(C)=CCC[C@@H](C)[C@H]1CC[C@@]2(C)C3=C(CC[C@]12C)[C@@]1(C)CC[C@H](O)C(C)(C)[C@@H]1CC3	CYP11A (Homo sapiens, UniProt P05108)	Conversion rate	0
CC(C)[C@H](C)CC[C@@H](C)[C@H]1CC[C@H]2[C@@H]3CC=C4C[C@@H](O)CC[C@]4(C)[C@H]3CC[C@]12C	CYP11A (Homo sapiens, UniProt P05108)	Conversion rate	1.0
CC(C)CCC[C@](C)(O)[C@H]1CC[C@H]2[C@@H]3CCC4=CC(=O)CC[C@]4(C)[C@H]3CC[C@@]21C [(20S)-20-hydroxycholest-4-en-3-one]	CYP11A (Homo sapiens, UniProt P05108)	Conversion rate	0
CC(C)CC[C@H](O)[C@@H](C)[C@H]1CC[C@H]2[C@@H]3CC=C4C[C@@H](O)CC[C@]4(C)[C@H]3CC[C@]12C [(22S)-22-hydroxy-cholesterol]	CYP11A (Homo sapiens, UniProt P05108)	Conversion rate	6.1
CC(C)CC[C@@H](O)[C@@H](C)[C@H]1CC[C@H]2[C@@H]3CCC4=CC(=O)CC[C@]4(C)[C@H]3CC[C@]12C [(22R)-22-hydroxycholest-4-en-3-one]	CYP11A (Homo sapiens, UniProt P05108)	Conversion rate	0.4
CC(C)CCC[C@@H](C)[C@H]1CC[C@H]2[C@@H]3CCC4=CC(=O)CC[C@]4(C)[C@H]3CC[C@]12C	CYP11A (Homo sapiens, UniProt P05108)	Conversion rate	0
CC(C)CC[C@H](O)[C@](C)(O)[C@H]1CC[C@H]2[C@@H]3CCC4=CC(=O)CC[C@]4(C)[C@H]3CC[C@]12C	CYP11A (Homo sapiens, UniProt P05108)	Conversion rate	0
CC(C)[C@@H](C)/C=C/[C@@H](C)[C@H]1CC[C@H]2C3=CC=C4C[C@@H](O)CC[C@]4(C)[C@H]3CC[C@]12C	CYP11A (Homo sapiens, UniProt P05108)	Conversion rate	0
CC(C)CCC[C@](C)(O)[C@H]1CC[C@H]2[C@@H]3CC=C4C[C@@H](O)CC[C@]4(C)[C@H]3CC[C@@]21C [(20S)-20-hydroxy-cholesterol]	CYP11A (Homo sapiens, UniProt P05108)	Conversion rate	16.3

---

Target under test: CYP11A (Homo sapiens, UniProt P05108)
Construct: A 1.45-kb CYP11A1 gene fragment amplified as a result of the above-described reaction; expressed in transfected cells; host or cells: Escherichia coli BL21(DE3), plasmid pCYP11A-ARX (strain BL21CYP11)
Sequence (P05108 40-521): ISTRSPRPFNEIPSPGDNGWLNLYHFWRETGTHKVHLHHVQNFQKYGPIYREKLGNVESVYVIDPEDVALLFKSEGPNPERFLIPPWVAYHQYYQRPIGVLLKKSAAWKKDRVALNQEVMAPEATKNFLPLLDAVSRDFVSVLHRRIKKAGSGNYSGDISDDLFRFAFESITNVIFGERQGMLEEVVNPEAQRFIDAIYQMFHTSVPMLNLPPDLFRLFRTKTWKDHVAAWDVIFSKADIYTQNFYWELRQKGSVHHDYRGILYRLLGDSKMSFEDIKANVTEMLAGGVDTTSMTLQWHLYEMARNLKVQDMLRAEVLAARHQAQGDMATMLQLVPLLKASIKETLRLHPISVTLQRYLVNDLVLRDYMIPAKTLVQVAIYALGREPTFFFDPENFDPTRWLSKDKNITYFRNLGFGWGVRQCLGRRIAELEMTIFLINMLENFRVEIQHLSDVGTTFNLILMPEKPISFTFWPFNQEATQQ
Test protocol: Conversion reaction of substrates by CYP11A-expressing Escherichia coli
Assay type: cell-based
Study conditions: same reaction as Example 6
Description: The Escherichia coli expression strain BP215 was inoculated into 2 ml of an M9 mix medium (Na2HPO4: 0.68%, KH2PO4: 0.3%, NaCl: 0.05%, NH4C;: 0.01%, Casamino acid: 1%, D-Glucose: 0.4%, CaCl2: 0.1 mM, MgCl2: 1 mM, Thiamine: 0.002%, FeSO4: 0.1 mM, Carbenicillin: 0.005%), and it was then subjected to shaking culture at 30° C. for 17 hours, so as to obtain pre-culture solution. […] The obtained mixture was centrifuged, and the upper layer was then analyzed by HPLC. […]
Measured parameter: added substrate remained (%)

> print(dat)
                                   compound  reported
1  CC(C)CCC[C@](C)(O)[C@H]1CC[C@H]2[C@@H]3CC=C4C[C@@H](O)CC[C@]4(C)[C@H]3CC[C@@]21C [(20S)-20-hydroxy-cholesterol]      98.8
2  CC(C)CCC[C@@H](C)[C@H]1CC[C@H]2C3=CC=C4C[C@@H](O)CC[C@]4(C)[C@H]3CC[C@]12C [7-dehydrocholesterol]      99.2
3  CC(C)CCC[C@@H](C)[C@H]1CC[C@H]2[C@@H]3CCC4=CC(=O)CC[C@]4(C)[C@H]3CC[C@]12C [4-cholesten-3-one]       100

---

Tested on: CYP204A1
Study conditions: strain BP172, same reaction as Example 6 (28° C., 5 hours)
In this section we review reported Conversion rate values for a set of compounds.
Measured parameter: Conversion rate

> print(dat)
                                   compound  target.under.test  measured.parameter  reported
1  CC(C)CC[C@@H](O)[C@](C)(O)[C@H]1CC[C@H]2[C@@H]3CCC4=CC(=O)CC[C@]4(C)[C@H]3CC[C@]12C           CYP204A1     Conversion rate     61.3%
2  CC(C)CCC[C@@H](C)[C@H]1CC[C@H]2C3=CC=C4C[C@@H](O)CC[C@]4(C)[C@H]3CC[C@]12C [7-dehydrocholesterol]           CYP204A1     Conversion rate     28.5%
3  CC(C)CCC[C@@H](C)[C@H]1CC[C@H]2[C@@H]3CC=C4C[C@@H](O)CC[C@]4(C)[C@H]3CC[C@]12C [cholesterol]           CYP204A1     Conversion rate     71.2%
